Cited source: patent US20220177587A1

target: huPD-L1 (Homo sapiens, UniProt Q9NZQ7); experiment: Flow binding to CHO cells stably expressing PD-L1; design: huCTLA4 and huPD-L1, full-length mammalian surface expression constructs were generated; expressed in transfected cells; host or cells: CHO cells, lentiviral transduction, sorted to >98% purity; conditions: Table E23; ratio of MFI at 33.3 nM
Sequence (Q9NZQ7 19-290): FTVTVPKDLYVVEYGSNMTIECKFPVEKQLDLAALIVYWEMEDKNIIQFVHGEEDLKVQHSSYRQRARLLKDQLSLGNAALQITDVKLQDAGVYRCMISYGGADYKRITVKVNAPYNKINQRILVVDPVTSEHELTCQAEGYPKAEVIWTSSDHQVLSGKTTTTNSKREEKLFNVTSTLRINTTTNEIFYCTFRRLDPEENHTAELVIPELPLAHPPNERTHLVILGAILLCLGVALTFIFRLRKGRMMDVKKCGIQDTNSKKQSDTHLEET
Observed property: Ratio of PDL1:CD28
Give bare numbers.

input: Name the recorded Ratio of PDL1:CD28 for H18V/A26D/E35D/M47V/V68M/A71G/D90G (protein, UniProt P33681 35-288, looked up, variant H18V A26D E35D M47V V68M A71G D90G, Fc fusion) T-lymphocyte activation …: VIHVTKEVKEVATLSCGVNVSVEELDQTRIYWQKDKKMVLTMMSGDVNIWPEYKNRTIFDITNNLSIMILGLRPSDEGTYECVVLKYEKGAFKREHLAEVTLSVKADFPTPSISDFEIPTSNIRRIICSTSGGFPEPHLSWLENGEELNAINTTVSQDPETELYAVSSKLDFNMTTNHSFMCLIKYGHLRVNQTFNWNTTKQEHFPDNLLPSWAITLISVNGIFVICCLTYCFAPRCRERRRNERLRRESVRPV .
output: 10.8
